B1: KLHL13 (parent)
chain: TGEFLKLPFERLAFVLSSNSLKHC

Variants of: B1
Experiment: protein stability index of a GFP-peptide fusion (GPS, HEK-293T) (PSI 1-6); higher = more stable;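 further: lentivirally expressed fusions sorted by FACS into six bins by GFP to DsRed ratio, PSI derived from sequencing read proportions per bin multiplied by bin number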
Settings: c terminus: a fixed tail appended
# protein stability index >= 2 gives satisfied, anything below gives not satisfied

# VARIANT IDENTIFIER, CLASSIFICATION
data = [
    ("P8M", "satisfied"),
    ("E3Q", "satisfied"),
    ("V15E", "not satisfied"),
    ("F14L", "satisfied"),
    ("G2I", "satisfied"),
]

Does the variant "H23C" have recorded protein stability index that is 2 or more?
satisfied

Check if protein stability index >= 2 (inclusive). Item: "F9W"
satisfied

Hi team, for "R11V" , is the recorded protein stability index at or above 2?
satisfied

# bool: protein stability index of "F14G" >= 2
satisfied

Hi, just wondering whether "C24F" shows protein stability index of 2 or higher.
satisfied
